Where these numbers come from: patent US4104384A

tested on: Shay's ulcer; assay: Anti-ulcerous properties: ulceration caused by ligature of the pylorus (Shay's ulcers), intraduodenal; type: in vivo; settings: rat, 10 mg/kg/i.d., read-out: Percentage reduction of Shay's ulcer
Observable: inhibition in vivo at 10 mg/kg (%)
I only need the number, in %, no unit after it.

Compound smiles: CC(C)NC(=O)CN1CCN(Cc2nc3ccccc3n2CCC(=O)c2ccc(Cl)cc2)CC1
Unit abbreviation: %
inhibition in vivo at 10 mg/kg: 73

What measured inhibition in vivo at 10 mg/kg goes with NC(=O)CN1CCN(Cc2nc3ccccc3n2CCC(=O)c2ccccc2)CC1 ? 74

Now consider O=C(CCn1c(CN2CCN(CC(=O)N3CCCC3)CC2)nc2ccccc21)c1ccccc1 and answer again. 90

Now consider O=C(CN1CCN(Cc2nc3ccccc3n2CCC(=O)c2ccccc2)CC1)NC1CCCC1 and answer again. 89
